# reported EC50; entries follow
- System: p53RE-bla HCT-116 cells
- conditions_used: read-out: EC50, viability, cherry pick confirmation
Note: unit µM is implicit; provide only the numeric part.

Input: Data request, read-out EC50, for O=[Se](O)O [Selenious acid]
Output: 25.8

Input: Data request, read-out EC50, for COc1cccc2c1cc([N+](=O)[O-])c1c(C(=O)[O-])cc3c(c12)OCO3.[Na+] [Sodium aristolochate-I]
Output: 9.67

Input: Data request, read-out EC50, for `Cl.O.c1cnc2c(c1)ccc1cccnc12`
Output: 22.1

Input: Data request, read-out EC50, for CC1=CC(=O)c2ccccc2C1=O [Menadione]
Output: 42.4

====

Heads up, these compounds all have p53 activation EC50, cherry pick confirmation values measured for p53 signaling (p53RE-bla HCT-116 cells).

Example entries and their recorded answers appear below.
CC(C)C[C@H](NC(=O)[C@H](CCc1ccccc1)NC(=O)CN1CCOCC1)C(=O)N[C@@H](Cc1ccccc1)C(=O)N[C@@H](CC(C)C)C(=O)[C@@]1(C)CO1
inactive
CCC(C)(NC(=O)c1cc(Cl)c(C)c(Cl)c1)C(=O)CCl (centres unmarked) [Zoxamide]
inactive
Cc1ccc([N+](=O)[O-])c(C)c1
inactive
C=CC1(C)OC(=O)N(c2cc(Cl)cc(Cl)c2)C1=O (centres unmarked)
inactive
CC(O)C(=O)O.CCOc1ccc2nc3cc(N)ccc3c(N)c2c1.O [Ethacridine lactate hydrate]
inactive
Cc1cc(OC(=O)N(C)C)nn1C(=O)N(C)C
inactive
CC(O)CN(CC(C)O)CC(C)O (centres unmarked)
inactive

Then this compound:
Input: p53 activation EC50, cherry pick confirmation of Cc1ccccc1C(=O)Nc1ccc(C(=O)N2CCCC(N(C)C)c3ccccc32)cc1 (centres unmarked) on p53 signaling (p53RE-bla HCT-116 cells)?
Output: inactive

====

- Test system: p53 signaling (p53RE-bla HCT-116 cells)
- experiment_summary: cells
- Type: cell-based
reported_metric: p53 activation EC50, primary screening

Cc1cc(OC(=O)N(C)C)nn1C(=O)N(C)C [Dimetilan]
inactive
CCCCSP(=O)(SCCCC)SCCCC [Tribufos]
inactive
CCOP(=S)(NC(C)C)Oc1ccccc1C(=O)OC(C)C (stereo not drawn) [Isofenphos]
inactive

====

- System: p53 signaling (p53RE-bla HCT-116 cells)
reported_metric: Efficacy, p53 activation, cherry pick confirmation

Example entries and their recorded answers appear below.
Oc1c(I)cc(I)cc1I [2,4,6-Triiodophenol]
inactive
C[C@H]1O[C@@H](n2cc(F)c(=O)[nH]c2=O)[C@H](O)[C@@H]1O [Doxifluridine]
inactive
COc1cccc2c1cc([N+](=O)[O-])c1c(C(=O)[O-])cc3c(c12)OCO3.[Na+] [Sodium aristolochate-I]
inactive
O=c1cc(-c2ccccc2)oc2cc(O)cc(O)c12 [Chrysin]
inactive

Input: Efficacy, p53 activation, cherry pick confirmation of COC(=O)Nc1nc2ccc(Sc3ccccc3)cc2[nH]1 [Fenbendazole] on p53 signaling (p53RE-bla HCT-116 cells)?
Output: inactive

====

- Test system: p53RE-bla HCT-116 cells
- experiment_summary: cells
- conditions_used: Homo sapiens, HCT-116, read-out: Viability EC50, cherry pick confirmation
# reported EC50; entries follow
Note: unit µM is implicit; provide only the numeric part.

Input: EC50 of `O=Nc1ccc(Nc2ccccc2)cc1` on p53RE-bla HCT-116 cells?
Output: 40.8

Input: EC50 of `Oc1c(Cl)cc(Cl)c(Cl)c1Cc1c(O)c(Cl)cc(Cl)c1Cl` on p53RE-bla HCT-116 cells?
Output: 2.23

Input: EC50 of `CC(C)(C)[C@H]1CC[C@H](CC2=C(O)C(=O)c3ccccc3C2=O)CC1` on p53RE-bla HCT-116 cells?
Output: 1.99

Input: EC50 of `CN(C)c1ccc2nc3ccc(=[N+](C)C)cc-3sc2c1` on p53RE-bla HCT-116 cells?
Output: 15.8

Input: EC50 of `COc1cc(/C=C/C(=O)CC(=O)/C=C/c2ccc(O)c(OC)c2)ccc1O` on p53RE-bla HCT-116 cells?
Output: 16.3

Input: EC50 of `CC(C)C[C@H](NC(=O)[C@H](Cc1ccccc1)NC(=O)c1cnccn1)B(O)O` on p53RE-bla HCT-116 cells?
Output: 0.397

Origin of values: paper PMC9151520
